# ASSAY_METHOD_TEXT: HepG2 cytotoxicity, primary screen, cytotoxicity control for P. falciparum antimalarial project, cell-based, ATP luminescence (AID 2303);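 also: 0% = DMSO wells and 100% = digitonin-killed cells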
# PROTOCOL_CONDITIONS: HepG2 viability, 24-48 h, at 10 µM
Calls of active or inactive are those of the source.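 The calls were made as follows: active = inhibition above 50%; inactive = the rest.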
Write down one outcome, taken from active, inactive

> print(dat)
                           structure.smiles       cat
1  Cc1cccc2[nH]c(-c3cccc(-c4cccc(CNCCc5cccn5C)c4)c3)nc12  inactive
2  Cc1ccc(CNC(=O)[C@H](CCCN)Nc2nc(Nc3ccccc3)ncc2C)cc1  inactive
3  Nc1ncc(-c2cccc(CCN3CCOCC3)c2)cc1-c1nc2ccc(Br)cc2[nH]1    active
4  CCCNCc1ccc(-c2ccc(CN(Cc3cnc(C)cn3)C(=O)c3nn(-c4ccccc4)nc3C)cc2)nc1  inactive
5  O=C(Cn1c(CCc2cccc(F)c2F)nc(=O)c2ccccc21)N(Cc1ccc(-c2ccc(C(F)(F)F)cc2)cc1)C1CCN(C2CCSCC2)CC1    active

Note: attention shifts to another entry.
Problem: Could you check what this test reported for `CCN(CC)CCNc1c2ccc(Cl)cc2nc2ccc(OC)nc12` ?
Result: inactive

* * *

# SYSTEM_NAME: Plasmodium falciparum protein kinase 6 (PK6, PF3D7_1337100)
# ASSAY_METHOD_TEXT: PfPK6 kinase inhibitors, biochemical, TCAMS library (AID 1159586)
# PROTOCOL_CONDITIONS: recombinant PfPK6, Kinase-Glo ATP depletion luminescence
Entries with a potency or affinity are not part of this list. The source made the active and inactive calls. No rule for the calls is given here.
MEASURED_PROPERTY: outcome

# annotated cases, reported outcome shown
> print(dat)
                                   molecule    result
1  COc1cccc(C(=O)NC(NC(=S)Nc2ccc(OC)cc2[N+](=O)[O-])C(Cl)(Cl)Cl)c1 (centres undefined)  inactive
2  COC(=O)c1ccc(NC(=O)Nc2ccc(Cn3ncc(N4CCCNCC4)c(Cl)c3=O)cc2)cc1  inactive
3  COc1ccc2nc3cc(Cl)ccc3c(NCCCCCCNc3c4ccc(Cl)cc4nc4ccc(OC)cc34)c2c1  inactive
4  Cc1ccc(CNC(=O)[C@H](Cc2ccccc2)Nc2cc(C)nc(NCC3CCCCC3)n2)cc1  inactive
5  N#CC(c1ccc(F)cc1)c1ccc2c(C(F)(F)F)cc(C(F)(F)F)nc2n1 (centres undefined)  inactive
6  Cc1ccc(C(=O)NC2C(=O)NC2c2ccccc2)c(C)c1 (centres undefined)  inactive
7  O=C(Cc1cnc[nH]1)Nc1cccc(-c2ccc(-c3nc4ccc(C(F)(F)F)cc4[nH]3)cc2)c1  inactive
8  Cc1ccc(-c2cc(C(=O)Nc3ccc(S(=O)(=O)N4CCCCC4)cc3)[nH]n2)c(O)c1  inactive

From here, focus on the item given below.
Problem: Please look at this molecule and report its outcome: CSc1cccc(Nc2nc3ccc(S(=O)(=O)NC(C)C(C)C)cc3n2[C@H](C)C(C)(C)C)c1 (some centres undefined)
Result: inactive

* * *

# ASSAY_METHOD_TEXT: antimalarial activity against Dd2 strain (AID 2302);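 also: 0% = DMSO untreated growth and 100% = chloroquine plus artemisinin killed control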
# PROTOCOL_CONDITIONS: P. falciparum Dd2 in RBCs, LDH growth readout, 72 h; at 2 µM; active compounds read high
Output t for growth inhibition not less than 90%; output f otherwise.

> print(dat)
                                   molecule  cat
1  CC(C)Oc1ccc(N2CCN(CCCCNC(=O)c3ccc(NC(=O)c4ccc(Cl)cc4)cc3)CC2)c(OC(C)C)c1    f
2  O=C(NCCNc1noc(-c2sccc2Br)n1)c1ccc(Cl)cc1    f

Problem: Hi team, for `Cc1noc(C)c1C(=O)N1CCc2cc3nccc(N4CCN5CCC[C@H]5C4)c3cc21` , is the recorded growth inhibition at or above 90%?
Result: f

Problem: Could you please find out whether `COC(=O)c1ccc(-c2ccc(-c3cccnc3)cc2C)cc1` has growth inhibition that meets 90% or exceeds it?
Result: t

* * *

# ASSAY_METHOD_TEXT: antimalarial activity against Dd2 strain (AID 2302);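 also: 0% = DMSO untreated growth and 100% = chloroquine plus artemisinin killed control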
# PROTOCOL_CONDITIONS: P. falciparum Dd2 in RBCs, LDH growth readout, 72 h; at 2 µM
The source made the active and inactive calls.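 Rule for the calls: active = growth inhibition above 50% at the single 2 µM test dose, taken to imply half-maximal potency below 2 µM; inactive = the rest.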
Your reply should match one of these outcome classes. 1.0 (active), 0.0 (inactive)

Check out these entries, answers already filled in.
> print(dat)
                                   molecule  cat
1  Cc1cccc2[nH]c(-c3cccc(-c4cccc(NC(=O)Nc5ccc(Cl)c(Cl)c5)c4)c3)nc12  1.0
2   Nc1nc(Nc2cccc(Cl)c2)ncc1C(=O)NCc1ccncc1  0.0
3  O=C(Nc1ccc(OC2CCN(Cc3ccccc3)CC2)c(Cl)c1)c1cccs1  1.0
4        COc1ccc2nccc(NN=Cc3cccc(Cl)c3)c2c1  1.0
5      Cc1ccc2c(NN=Cc3ccc(Cl)cc3)cc(C)nc2c1  0.0

Problem: Please share the test call associated with `CC(=O)COc1c(C2CCN(CCCCNC(=O)c3ccc(-c4ccc(C(F)(F)F)cc4)cc3)CC2)ccc2c1CCCC2` .
Result: 1.0

Problem: Hi team, can someone confirm the assay call for CCCN(CCC)CCCCC(C)Nc1c2ccc(Cl)cc2nc2ccc(OC)cc12 (stereo not given) ?
Result: 1.0

Problem: Please indicate how the test categorized N#CC(c1ccc(F)cc1)c1ccc2c(C(F)(F)F)cc(C(F)(F)F)nc2n1 (stereo not given) .
Result: 1.0

Problem: Assay result, entry `CCCCOC(=O)c1ccc(Nc2cc(C)nc3ccc(OC)cc23)cc1` — outcome?
Result: 1.0

Problem: Identify the outcome logged in this assay for the molecule shown: `COC(=O)c1cccc(CNCc2ccc(-c3cccc(-c4nc5ccc(C(F)(F)F)cc5[nH]4)c3)cc2)c1`
Result: 1.0

Problem: Just curious, what result did `O=C(Nc1cccc(-c2ccc(-c3nc4ccc(F)cc4[nH]3)s2)c1)c1ccncc1` get here?
Result: 0.0

* * *

# ASSAY_METHOD_TEXT: HepG2 cytotoxicity, primary screen, cytotoxicity control for P. falciparum antimalarial project, cell-based, ATP luminescence (AID 2303);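 also: 0% = DMSO wells and 100% = digitonin-killed cells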
# PROTOCOL_CONDITIONS: HepG2 viability, 24-48 h, at 10 µM
Calls of active or inactive are those of the source.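 The calls were made as follows: active = inhibition above 50%; inactive = the rest.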
Answer with one of the outcomes active, inactive

Problem: Please share the test call associated with `COc1ccc2nc(-c3ccccc3)cc(NCCCNc3cc(-c4ccccc4)nc4ccc(OC)cc34)c2c1` .
Result: active

Problem: Called result for `CO/C(=C\C=C\c1cc2cc(Cl)c(Cl)cc2[nH]1)C(=O)NCCCN1CCN(C2CCCCC2)CC1`
Result: active

Problem: Dear colleague, could you share the recorded outcome for `CN1CCN(CCCN(Cc2cccc(-c3ccc(CNCCc4ccccc4)cc3)c2)C(=O)c2cccs2)CC1` when you have a moment?
Result: active

Problem: So what was the verdict on `CCN(CC)CCN(Cc1ccc(-c2ccc(C(F)(F)F)cc2)cc1)C(=O)Cn1c(CCc2cccc(F)c2F)nc(=O)c2cccnc21` in this test?
Result: active

Problem: What classification did `CCN(CCCN1CCCCC1)c1cc(C)nc(Nc2ccc(C)c(F)c2)n1` end up with in this test?
Result: inactive

Problem: Record request — test call for CC(C)C1=C[C@H]2C[C@]3(C4OCCO4)[C@@H]4CC[C@@H](C)[C@H]4C[C@@]2(C(=O)OCC2COCO2)[C@]13C(=O)OC(c1ccccc1)c1ccccc1 (stereo partly drawn)
Result: inactive

Problem: So what was the verdict on `O=C(Nc1ccc(Cl)cc1F)NC1CCN(CCCCCNC(=O)[C@@H]2C[C@H]2c2ccc(Cl)c(Cl)c2)CC1` in this test?
Result: inactive

* * *

# ASSAY_METHOD_TEXT: HepG2 cytotoxicity, primary screen, cytotoxicity control for P. falciparum antimalarial project, cell-based, ATP luminescence (AID 2303);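 also: 0% = DMSO wells and 100% = digitonin-killed cells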
# PROTOCOL_CONDITIONS: HepG2 viability, 24-48 h, at 10 µM
Calls of active or inactive are those of the source.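 Rule for the calls: active = inhibition above 50%; inactive = the rest.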
Just give me one of these, please: active, inactive

See these solved cases before continuing.
> print(dat)
                                    molecule       cat
 1  CCCNC(=O)C1Cc2cc(OC)c(OC)cc2C2(N1)C(=O)N(Cc1cccc(OC)c1)c1ccccc12 (centres undefined)  inactive
 2  Cc1c2ccc(N(C)c3ccnc(Nc4ccc5c(c4)nc(NC(C)C)n5C)n3)cc2nn1C  inactive
 3  Cc1[nH]c(C)c(-c2ccc(OCc3cccc(C(F)(F)F)c3)nc2)c(=O)c1Br  inactive
 4  O=c1cc(NCCCNC2CCOc3c(Cl)cccc32)[nH]c2ccccc12 (centres undefined)  inactive
 5  Cc1nc(-c2nc(NCc3ccccn3)ncc2-c2ccsc2)sc1C  inactive
 6       CC(C)(C)C(=O)Nc1ccccc1Oc1ccc(Cl)cc1    active
 7  O=C(Nc1ccc(OC2CCN(Cc3ccc(F)cc3)C2)cc1)c1cccs1 (centres undefined)  inactive
 8  Fc1ccc(CNc2nc(-c3ccc(F)c(C(F)(F)F)c3)n(-c3cccc(C(F)(F)F)c3)n2)cc1  inactive
 9  O=C(NCCCCN1CCN(c2cccc3c2CCCC3)CC1)c1ccc(NC(=O)c2ccc(Cl)cc2)cc1  inactive
10  CCNc1cc(C(=O)N[C@@H](Cc2ccccc2)[C@H](O)CN[C@@H](C)c2ccccc2)cc(N2CCCC2=O)c1  inactive

Problem: Answer briefly: the call reported for COc1cc(NCC(CN)Cc2ccc3c(c2)OCO3)nc2ccccc12 (centres undefined) in this assay.
Result: inactive

Problem: Please indicate how the test categorized `CC1CCN(Cc2c(O)ccc3c(=O)c(-c4nc5ccccc5s4)c(N)oc23)CC1` .
Result: inactive

Problem: Lab log entry: `COc1c(C2CCN(CCCCNC(=O)c3ccc(-c4ccc(Cl)cc4)cn3)CC2)ccc2c1CCCC2` — outcome as called in the assay?
Result: active

Problem: GET /call?item= `Cc1cc(NCCc2ccccc2)nc(/N=C(\N)Nc2ccc(Cl)cc2)n1` returns the recorded outcome of this test.
Result: inactive

Problem: Test call for this molecule, please: `Cc1[nH]cnc1Cc1ccc2c(c1O)c1ccccc1n2C`
Result: inactive
